Origin of values: paper PMC4552634

The entries below come with measured % Inhibition values attached.
Test system: P. falciparum stage V gametocytes
Set-up: BacTiter-Glo ATP luminescence viability of purified stage V gametocytes in 384-well plates, per cent inhibition versus DMSO
Conditions: 48 h, 5 µM; inhibitor
Hit rate of the full screen: of about 13,000 compounds, about 3,200 (25%) showed an effect of 50% or more. This is one part of the list.
Please state the figure in %; there is no need to write the unit.

These solved cases illustrate the format of a correct answer.
O=C(/C=C/c1ccc(Cl)c(Cl)c1)N1CCN(C(=O)Nc2cccc(C(F)(F)F)c2)CC1; -35.14
COc1cccc(Nc2nc(C)cc(Nc3cccc(C#N)c3)n2)c1; 4.259
COc1cc2nc(N(C)C3CCN(Cc4ccccc4)CC3)nc(N)c2cc1OC; 19.02
COc1cccc(Nc2nc(Nc3cccc(C#N)c3)cc(C(F)(F)F)n2)c1; -24.01
FC(F)(F)Oc1cccc(CNc2noc(-c3sccc3Br)n2)c1; 1.419
C=CCOC(=O)N1CCC(CNCc2ccc(-c3ccc(-c4nc5ccccc5[nH]4)s3)cc2)C1.O=C(O)C(F)(F)F (stereo not drawn); -14.35
COc1ccc(OC)c(Cc2cnc3nc(N)[nH]c(=O)c3c2C)c1; 16.49
COc1cc2nc(NC3CCN(Cc4ccccc4)CC3)nc(N)c2cc1OC; 84.09

Ask: Test system P. falciparum stage V gametocytes; read-out % Inhibition; what value for "NC(N)=NC(=O)Nc1cc(Br)c(Cl)c(C(F)(F)F)c1" ?
Reply: -25.86
